Measured MIC by item
Test system: Escherichia coli
assayNotes: Minimum Inhibitory Concentration (MIC) according to DIN 58 940
Type: cell-based

Example entries and their recorded answers appear below.
molecule: CCCCCCCCCCC(O)COC1COC2C(O)COC12 (centres unmarked) [Compound (4)]
MIC: <2,000 ppm
//
molecule: CCCCCCCCCCCCOC1COC2C(O)COC12 (centres unmarked) [Compound (2)]
MIC: >10,000 ppm
//
molecule: CCCCCCCCOC1COC2C(O)COC12 (centres unmarked) [Compound (1)]
MIC: <1,000 ppm
//
molecule: CCCCCCCCC(O)COC1COC2C(O)COC12 (centres unmarked) [Compound (3)]
MIC: <2,000 ppm

Request the reported MIC associated with CCCCCCCCOC1COC2C(OCCCCCCCC)COC12 (centres unmarked) [Comperative compound (1), reference compound] >10,000 ppm

Data provenance: patent US9993000B2
